These entries and their values trace back to patent US20260364184A1.

# Tested on: Human myeloid monocytic leukemia cell line (MV-4-11)
# Test Protocol: Inhibition of MV-4-11 cell proliferation (CellTiter luminescent viability)
# Assay type: cell-based
# Run Conditions: Homo sapiens, MV4-11; Table IL2, BCR-ABL inhibitor-based; MV-4-11, 10 nM, 96 hours; read-out: Inhibition Rate at 10 nM (%)
Observable: inhibition at 0.01 µM

| Molecule | inhibition at 0.01 µM |
| --- | --- |
| Cc1ccc(C(=O)Nc2ccc(N3CCC(N(C)Cc4ccc5c(c4)CN(N4CCC(=O)NC4=O)C5=O)CC3)c(C(F)(F)F)c2)cc1C#Cc1cnc2cccnn12 [GT-08220] | -5 to 0% |
| Cc1ccc(C(=O)Nc2ccc(CN3CCN(CC4CCN(c5cccc6c5C(=O)N(N5CCC(=O)NC5=O)C6=O)CC4)CC3)c(C(F)(F)F)c2)cc1C#Cc1cnc2cccnn12 [GT-08353] | 50 to 60% |
| Cc1nc(Nc2ncc(C(=O)Nc3c(C)cccc3Cl)s2)cc(N2CCN(CCO)CC2)n1 [Dasatinib, reference compound] | 10 to 15% |
| Cc1ccc(C(=O)Nc2ccc(CN3CCN(CC4CCN(c5ccc6c(c5)C(=O)N(N5CCC(=O)NC5=O)C6=O)CC4)CC3)c(C(F)(F)F)c2)cc1C#Cc1cnc2cccnn12 [GT-08352] | 30 to 40% |
| Cc1ccc(C(=O)Nc2ccc(CN3CCN(Cc4ccc5c(c4)CN(N4CCC(=O)NC4=O)C5=O)CC3)c(C(F)(F)F)c2)cc1C#Cc1cnc2cccnn12 [GT-08216] | 80 to 100% |

In one line, give reported inhibition at 0.01 µM of the entry Cc1ccc(C(=O)Nc2ccc(CN3CCN(Cc4ccc5c(c4)C(=O)N(N4CCC(=O)NC4=O)C5=O)CC3)c(C(F)(F)F)c2)cc1C#Cc1cnc2cccnn12 [GT-08217] . 10 to 15%

In one line, give reported inhibition at 0.01 µM of the entry Cc1ccc(C(=O)Nc2ccc(N3CCN(Cc4ccc5c(c4)CN(N4CCC(=O)NC4=O)C5=O)CC3)c(C(F)(F)F)c2)cc1C#Cc1cnc2cccnn12 [GT-08218] . 5 to 10%

In one line, give reported inhibition at 0.01 µM of the entry Cc1ccc(C(=O)Nc2ccc(N3CCC(N(C)Cc4ccc5c(c4)C(=O)N(N4CCC(=O)NC4=O)C5=O)CC3)c(C(F)(F)F)c2)cc1C#Cc1cnc2cccnn12 [GT-08221] . -5 to 0%

###

# Test system: Human myeloid monocytic leukemia cell line (MV-4-11)
# Test Protocol: Inhibition of MV-4-11 cell proliferation (CellTiter luminescent viability)
# Type: cell-based
# Run Conditions: Homo sapiens, MV4-11; Table IA3, IRAK4 inhibitor-based; MV-4-11, 500 nM, 96 hours; read-out: Inhibition Rate at 500 nM (%)
# inhibition at 0.5 µM values compiled below

| Compound Smiles | Observable | Reading |
| --- | --- | --- |
| O=C1CCN(N2Cc3cc(CN4CCC(n5cc(NC(=O)c6cnn7ccc(N8CCOCC8)nc67)c(C(F)F)n5)CC4)ccc3C2=O)C(=O)N1 | inhibition at 0.5 µM | 80 to 100% |
| O=C1CCN(N2C(=O)c3cccc(N4CCC(CN5CCN(c6ccc7c(c6)nc(NC(=O)c6cccc(C(F)(F)F)c6)n7[C@H]6CC[C@@H](CO)CC6)CC5)CC4)c3C2=O)C(=O)N1 | inhibition at 0.5 µM | 60 to 80% |
| O=C1CCN(N2C(=O)c3ccc(CN4CCC(n5cc(NC(=O)c6coc(-c7ccnc(NCC(F)(F)F)c7)n6)c(C(F)F)n5)CC4)cc3C2=O)C(=O)N1 | inhibition at 0.5 µM | 80 to 100% |
| O=C1CCN(N2C(=O)c3cccc(N4CCC(CN5CCC(n6cc(NC(=O)c7cnn8ccc(N9C[C@H]%10C[C@@H]9CO%10)nc78)c(C(F)F)n6)CC5)CC4)c3C2=O)C(=O)N1 | inhibition at 0.5 µM | 80 to 100% |

Consider now this further compound.
Give inhibition at 0.5 µM only, for "O=C1CCN(N2C(=O)c3cccc(N4CCC(CN5CCC(n6cc(NC(=O)c7cnn8ccc(N9CCOCC9)nc78)c(C(F)F)n6)CC5)CC4)c3C2=O)C(=O)N1" , using Human myeloid monocytic leukemia cell line (MV-4-11) data. 80 to 100%
